Origin of the recorded values: patent US7855205B2

Biological target: HER2 (Homo sapiens, UniProt P04626)
Construct: polyhistidine (N)
Sequence (P04626 676-1255 limits assumed): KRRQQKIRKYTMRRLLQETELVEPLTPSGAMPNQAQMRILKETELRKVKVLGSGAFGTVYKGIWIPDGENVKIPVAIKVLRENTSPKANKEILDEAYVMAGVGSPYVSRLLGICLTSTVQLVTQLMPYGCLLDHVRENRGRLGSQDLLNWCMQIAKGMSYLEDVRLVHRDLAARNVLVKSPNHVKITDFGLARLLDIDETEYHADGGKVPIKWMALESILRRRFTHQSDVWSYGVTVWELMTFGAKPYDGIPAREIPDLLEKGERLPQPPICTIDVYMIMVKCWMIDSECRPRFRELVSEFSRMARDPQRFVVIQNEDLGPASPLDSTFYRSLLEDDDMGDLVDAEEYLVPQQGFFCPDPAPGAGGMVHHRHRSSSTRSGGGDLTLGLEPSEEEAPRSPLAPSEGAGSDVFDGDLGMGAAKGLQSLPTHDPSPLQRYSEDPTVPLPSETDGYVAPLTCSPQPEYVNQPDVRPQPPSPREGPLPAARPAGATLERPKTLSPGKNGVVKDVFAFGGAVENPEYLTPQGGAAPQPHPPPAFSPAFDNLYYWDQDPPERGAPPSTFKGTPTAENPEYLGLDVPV
Assay: HER2 kinase Screening Assay
Type: biochemical
Conditions: 33P-γ-ATP incorporation, 10 μM ATP
log10 of IC50 values by entry
quantity-measured: log10 of IC50 (log10 of the value in µM)

compound="CCN(CC)CCc1ccc(Nc2nccc(-c3c[nH]c4ncccc34)n2)cc1 [Cpd 24]" recorded_measurement=-2.05
compound="OCCOc1ccc(Nc2nccc(-c3c[nH]c4ncccc34)n2)cc1 [Cpd 4]" recorded_measurement=-2.00
compound="c1cnc2[nH]cc(-c3ccnc(Nc4ccc(CCN5CCOCC5)cc4)n3)c2c1 [Cpd 22]" recorded_measurement=-1.96
compound="CN(C)CCc1ccc(Nc2nccc(-c3c[nH]c4ncccc34)n2)cc1 [Cpd 23]" recorded_measurement=-1.92
compound="c1cnc2[nH]cc(-c3ccnc(Nc4ccc(CCN5CCCC5)cc4)n3)c2c1 [Cpd 19]" recorded_measurement=-1.96
compound="COc1cc(Nc2nccc(-c3c[nH]c4ncccc34)n2)cc(OC)c1OC [Cpd 2]" recorded_measurement=-0.69
compound="CNCCc1ccc(Nc2nccc(-c3c[nH]c4ncccc34)n2)cc1 [Cpd 25]" recorded_measurement=-1.92
compound="c1ccc(Nc2nccc(-c3c[nH]c4ncccc34)n2)cc1 [Cpd 3]" recorded_measurement=-1.49
compound="c1cnc2[nH]cc(-c3ccnc(Nc4ccc(CCN5CCNCC5)cc4)n3)c2c1 [Cpd 20]" recorded_measurement=-1.60
compound="CN1CCN(CCc2ccc(Nc3nccc(-c4c[nH]c5ncccc45)n3)cc2)CC1 [Cpd 21]" recorded_measurement=-2.05
compound="OCCc1ccc(Nc2nccc(-c3c[nH]c4ncccc34)n2)cc1 [Cpd 1]" recorded_measurement=-2.10
compound="CCNCCc1ccc(Nc2nccc(-c3c[nH]c4ncccc34)n2)cc1 [Cpd 26]" recorded_measurement=-2.22
